experimentalSystem: human GLP-1 receptor (human, UniProt P43220 24-463)
testDetails: cell-based or functional assay
readout: cAMP EC50 (1.0% HSA)

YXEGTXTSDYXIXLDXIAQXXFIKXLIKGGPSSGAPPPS (Y-Aib-EGT-αMeF(2F)-TSDY-Aib-I-αMeL-LD-Orn-IAQ-Aib-Orn-FIK((2-[2-(2-Amino-ethoxy)-ethoxy]-acetyl)3-(γ-Glu)--(10-(4-carboxyphenoxy)decanoyl))-αMeY-LIK((2-[2-(2-Amino-ethoxy)-ethoxy]-acetyl)3-(γ-Glu)--(10-(4-carboxyphenoxy)decanoyl))GGPSSGAPPPS-NH2) [Example 481] = 6.16 nM

Can you look up the measured cAMP EC50 (1.0% HSA) of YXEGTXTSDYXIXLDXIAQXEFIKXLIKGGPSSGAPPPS (Y-Aib-EGT-αMeF(2F)-TSDY-Aib-I-αMeL-LD-Orn-IAQ-Aib-EFIK((2-[2-(2-Amino-ethoxy)-ethoxy]-acetyl)-(γ-Glu)-(10-(4-carboxyphenoxy)decanoyl))-αMeY-LIK((2-[2-(2-Amino-ethoxy)-ethoxy]-acetyl)-(γ-Glu)-(10-(4-carboxyphenoxy)decanoyl))GGPSSGAPPPS-NH2) [Example 375] for me?
56.1 nM

Which cAMP EC50 (1.0% HSA) value is on record for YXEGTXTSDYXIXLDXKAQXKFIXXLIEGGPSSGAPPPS (Y-Aib-EGT-αMeF(2F)-TSDY-Aib-I-αMeL-LD-Orn-K((2-[2-(2-Amino-ethoxy)-ethoxy]-acetyl)2-CO-(CH2)12-CO2H)AQ-Aib-K((2-[2-(2-Amino-ethoxy)-ethoxy]-acetyl)2-CO-(CH2)12-CO2H)FI-(D-Glu)-αMeY-LIEGGPSSGAPPPS-NH2) [Example 385] ?
10.6 nM

Any idea what cAMP EC50 (1.0% HSA) was measured for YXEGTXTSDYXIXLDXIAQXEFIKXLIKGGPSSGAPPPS (Y-Aib-EGT-αMeF(2F)-TSDY-Aib-I-αMeL-LD-Orn-IAQ-Aib-EFIK((2-[2-(2-Amino-ethoxy)-ethoxy]-acetyl)-(γ-Glu)-(2-[2-(2-Amino-ethoxy)-ethoxy]-acetyl)2-CO-(CH2)12-CO2H)-αMeY-LIK((2-[2-(2-Amino-ethoxy)-ethoxy]-acetyl)-(γ-Glu)-(2-[2-(2-Amino-ethoxy)-ethoxy]-acetyl)2-CO-(CH2)12-CO2H)GGPSSGAPPPS-NH2) [Example 364] ?
13 nM

Data request, read-out cAMP EC50 (1.0% HSA), for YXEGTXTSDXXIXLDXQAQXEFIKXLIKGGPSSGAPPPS (Y-Aib-EGT-αMeF(2F)-TSD-4Pal-Aib-I-αMeL-LD-Orn-QAQ-Aib-EFIK((2-[2-(2-Amino-ethoxy)-ethoxy]-acetyl)3-(γ-Glu)-CO-(CH2)12-CO2H)-αMeY-LIK((2-[2-(2-Amino-ethoxy)-ethoxy]-acetyl)3-(γ-Glu)-CO-(CH2)12-CO2H)GGPSSGAPPPS-NH2) [Example 460]
6.31 nM

What value of cAMP EC50 (1.0% HSA) has been reported for the following binder? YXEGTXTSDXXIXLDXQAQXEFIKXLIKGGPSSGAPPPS (Y-Aib-EGT-αMeF(2F)-TSD-4Pal-Aib-I-αMeL-LD-Orn-QAQ-Aib-EFIK((2-[2-(2-Amino-ethoxy)-ethoxy]-acetyl)2-(γ-Glu)-CO-(CH2)12-CO2H)-αMeY-LIK((2-[2-(2-Amino-ethoxy)-ethoxy]-acetyl)2-(γ-Glu)-CO-(CH2)12-CO2H)GGPSSGAPPPS-NH2) [Example 411]
11.4 nM

Which value of cAMP EC50 (1.0% HSA) has been reported for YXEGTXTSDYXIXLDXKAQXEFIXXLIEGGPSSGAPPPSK (Y-Aib-EGT-αMeF(2F)-TSDY-Aib-I-αMeL-LD-Orn-K((2-[2-(2-Amino-ethoxy)-ethoxy]-acetyl)-(γ-Glu)-(10-(4-carboxyphenoxy)decanoyl))AQ-Aib-EFI-(D-Glu)-αMeY-LIEGGPSSGAPPPSK((2-[2-(2-Amino-ethoxy)-ethoxy]-acetyl)-(γ-Glu)-(10-(4-carboxyphenoxy)decanoyl))-NH2) [Example 374] in the records?
39.7 nM

Recorded cAMP EC50 (1.0% HSA) of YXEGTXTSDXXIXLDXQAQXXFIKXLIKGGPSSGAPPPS (not fully specified; Y-Aib-EGT-αMeF(2F)-TSD-4Pal-Aib-I-αMeL-LD-Orn-QAQ-Aib-Orn-FIK((2-[2-(2-Amino-ethoxy)-ethoxy]-acetyl)-Ahx-(γ-Glu)-CO-(CH2)12-CO2)-αMeY-LIK((2-[2-(2-Amino-ethoxy)-ethoxy]-acetyl)-Ahx-(γ-Glu)-CO-(CH2)12-CO2)GGPSSGAPPPS-NH2) [Example 449] , please.
7.27 nM

Give the measured cAMP EC50 (1.0% HSA) of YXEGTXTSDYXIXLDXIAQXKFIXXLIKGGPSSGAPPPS (Y-Aib-EGT-αMeF(2F)-TSDY-Aib-I-αMeL-LD-Orn-IAQ-Aib-K((2-[2-(2-Amino-ethoxy)-ethoxy]-acetyl)-(γ-Glu)-(10-(4-carboxyphenoxy)decanoyl))FI-(D-Glu)-αMeY-LIK((2-[2-(2-Amino-ethoxy)-ethoxy]-acetyl)-(γ-Glu)-(10-(4-carboxyphenoxy)decanoyl))GGPSSGAPPPS-NH2) [Example 376] .
419 nM

Query (binder): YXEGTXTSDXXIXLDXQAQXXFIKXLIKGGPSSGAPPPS (Y-Aib-EGT-αMeF(2F)-TSD-4Pal-Aib-I-αMeL-LD-Orn-QAQ-Aib-Orn-FIK((2-[2-(2-Amino-ethoxy)-ethoxy]-acetyl)-Ahx-(γ-Glu)-(10-(4-carboxyphenoxy)decanoyl))-αMeY-LIK((2-[2-(2-Amino-ethoxy)-ethoxy]-acetyl)-Ahx-(γ-Glu)-(10-(4-carboxyphenoxy)decanoyl))GGPSSGAPPPS-NH2) [Example 453] ; field requested: cAMP EC50 (1.0% HSA)
5.47 nM

Fill in: cAMP EC50 (1.0% HSA) of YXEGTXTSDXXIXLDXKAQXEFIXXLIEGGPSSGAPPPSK (Y-Aib-EGT-αMeF(2F)-TSD-4Pal-Aib-I-αMeL-LD-Orn-K((2-[2-(2-Amino-ethoxy)-ethoxy]-acetyl)3-(γ-Glu)-CO-(CH2)10-CH3)AQ-Aib-EFI-(D-Glu)-αMeY-LIEGGPSSGAPPPSK((2-[2-(2-Amino-ethoxy)-ethoxy]-acetyl)3-(γ-Glu)-CO-(CH2)10-CH3)-NH2) [Example 424] is ___
3.07 nM

If you can, please state the reported cAMP EC50 (1.0% HSA) value of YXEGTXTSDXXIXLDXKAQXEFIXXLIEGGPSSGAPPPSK (Y-Aib-EGT-αMeF(2F)-TSD-4Pal-Aib-I-αMeL-LD-Orn-K((2-[2-(2-Amino-ethoxy)-ethoxy]-acetyl)-(y-Glu)-(10-(4-carboxyphenoxy)decanoyl))AQ-Aib-EFI-(D-Glu)-αMeY-LIEGGPSSGAPPPSK((2-[2-(2-Amino-ethoxy)-ethoxy]-acetyl)-(γ-Glu)-(10-(4-carboxyphenoxy)decanoyl))-NH2) [Example 362] .
29.9 nM

Which cAMP EC50 (1.0% HSA) value is on record for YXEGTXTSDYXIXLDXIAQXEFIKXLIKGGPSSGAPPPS (Y-Aib-EGT-αMeF(2F)-TSDY-Aib-I-αMeL-LD-Orn-IAQ-Aib-EFIK((2-[2-(2-Amino-ethoxy)-ethoxy]-acetyl)-(γ-Glu)-(2-[2-(2-Amino-ethoxy)-ethoxy]-acetyl)-CO-(CH2)12-CO2H)-αMeY-LIK((2-[2-(2-Amino-ethoxy)-ethoxy]-acetyl)-(γ-Glu)-(2-[2-(2-Amino-ethoxy)-ethoxy]-acetyl)-CO-(CH2)12-CO2H)GGPSSGAPPPS-NH2) [Example 365] ?
22.3 nM

Recorded cAMP EC50 (1.0% HSA) of YXEGTXTSDXXIXLDXKAQXTFIXXLIKGGPSSGAPPPS (Y-Aib-EGT-αMeF(2F)-TSD-4Pal-Aib-I-αMeL-LD-Orn-K((2-[2-(2-Amino-ethoxy)-ethoxy]-acetyl)2-(γ-Glu)-CO-(CH2)10-CH3)AQ-Aib-TFI-(D-Glu)-αMeY-LIK((2-[2-(2-Amino-ethoxy)-ethoxy]-acetyl)2-(γ-Glu)-CO-(CH2)10-CH3)GGPSSGAPPPS-NH2) [Example 419] , please.
7.19 nM

Record request: cAMP EC50 (1.0% HSA) value, item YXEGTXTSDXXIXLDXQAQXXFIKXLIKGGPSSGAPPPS (Y-Aib-EGT-αMeF(2F)-TSD-4Pal-Aib-I-αMeL-LD-Orn-QAQ-Aib-Orn-FIK((2-[2-(2-Amino-ethoxy)-ethoxy]-acetyl)-(γ-Glu)-(10-(4-carboxyphenoxy)decanoyl))-αMeY-LIK((2-[2-(2-Amino-ethoxy)-ethoxy]-acetyl)-(γ-Glu)-(10-(4-carboxyphenoxy)decanoyl))GGPSSGAPPPS-NH2) [Example 463]
4.09 nM

If you can, please state the reported cAMP EC50 (1.0% HSA) value of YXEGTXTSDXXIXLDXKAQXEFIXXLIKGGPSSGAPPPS (Y-Aib-EGT-αMeF(2F)-TSD-4Pal-Aib-I-αMeL-LD-Orn-K((2-[2-(2-Amino-ethoxy)-ethoxy]-acetyl)2-(10-(4-carboxyphenoxy)decanoyl))AQ-Aib-EFI-(D-Glu)-αMeY-LIK((2-[2-(2-Amino-ethoxy)-ethoxy]-acetyl)2-(10-(4-carboxyphenoxy)decanoyl))GGPSSGAPPPS-NH2) [Example 395] .
6.26 nM

Please look up its cAMP EC50 (1.0% HSA): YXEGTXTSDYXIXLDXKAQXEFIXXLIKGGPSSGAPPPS (Y-Aib-EGT-αMeF(2F)-TSDY-Aib-I-αMeL-LD-Orn-K((2-[2-(2-Amino-ethoxy)-ethoxy]-acetyl)2-(10-(4-carboxyphenoxy)decanoyl))AQ-Aib-EFI-(D-Glu)-αMeY-LIK((2-[2-(2-Amino-ethoxy)-ethoxy]-acetyl)2-(10-(4-carboxyphenoxy)decanoyl))GGPSSGAPPPS-NH2) [Example 396]
6.49 nM

Reported cAMP EC50 (1.0% HSA) for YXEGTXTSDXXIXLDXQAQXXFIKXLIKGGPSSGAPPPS (Y-Aib-EGT-αMeF(2F)-TSD-4Pal-Aib-I-αMeL-LD-Orn-QAQ-Aib-Orn-FIK((2-[2-(2-Amino-ethoxy)-ethoxy]-acetyl)-(γ-Glu)3-CO-(CH2)12-CO2H)-αMeY-LIK((2-[2-(2-Amino-ethoxy)-ethoxy]-acetyl)-(γ-Glu)3-CO-(CH2)12-CO2H)GGPSSGAPPPS-NH2) [Example 486] : what is it?
2 nM

Which cAMP EC50 (1.0% HSA) value is on record for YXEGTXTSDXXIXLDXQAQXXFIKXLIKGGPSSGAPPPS (Y-Aib-EGT-αMeF(2F)-TSD-4Pal-Aib-I-αMeL-LD-Orn-QAQ-Aib-Orn-FIK(Aoc-(2-[2-(2-Amino-ethoxy)-ethoxy]-acetyl)-(γ-Glu)-(10-(4-carboxyphenoxy)decanoyl))-αMeY-LIK(Aoc-(2-[2-(2-Amino-ethoxy)-ethoxy]-acetyl)-(γ-Glu)-(10-(4-carboxyphenoxy)decanoyl))GGPSSGAPPPS-NH2) [Example 456] ?
14.7 nM

Source of measurements: patent US20230265151A1
